Data credit: ChEMBL document CHEMBL1909294

Let's go through some recorded HepSE_hepatic failure values for Hepatotoxicity together.
Outcome measure: HepSE_hepatic failure

INSERT INTO assay_data (compound, measured_target, value_reported) VALUES
  ('[Cl-].[K+] [POTASSIUM CHLORIDE]', 'Hepatotoxicity', 0),
  ('C[C@H]1c2cccc(O)c2C(=O)C2=C(O)[C@]3(O)C(=O)C(C(N)=O)=C(O)[C@@H](N(C)C)[C@@H]3[C@@H](O)[C@@H]21.O [DOXYCYCLINE]', 'Hepatotoxicity', 0),
  ('Nc1nc(F)nc2c1ncn2[C@@H]1O[C@H](CO)[C@@H](O)[C@@H]1O [FLUDARABINE]', 'Hepatotoxicity', 1),
  ('CC(C)NCC(O)COc1cccc2ccccc12 (centres undefined) [PROPRANOLOL]', 'Hepatotoxicity', 0),
  ('CN(C)[C@@H]1C(O)=C(C(N)=O)C(=O)[C@@]2(O)C(O)=C3C(=O)c4c(O)ccc(Cl)c4[C@@H](O)[C@H]3C[C@@H]12 [DEMECLOCYCLINE]', 'Hepatotoxicity', 1),
  ('Cn1c(=O)c2[nH]cnc2n(C)c1=O.O [THEOPHYLLINE]', 'Hepatotoxicity', 0),
  ('[N]=O [NITRIC OXIDE]', 'Hepatotoxicity', 0),
  ('NCC(=O)CCC(=O)O [AMINOLEVULINIC ACID]', 'Hepatotoxicity', 0),
  ('CNC(=C[N+](=O)[O-])NCCSCc1ccc(CN(C)C)o1 [RANITIDINE]', 'Hepatotoxicity', 1);

====

Where a SMILES comes first, the peptide text is derived from it. Bridges are numbered along the chain shown (N, C = ends). [ ]: non-standard residue; d: D form. The star is where a group is joined. Ileψ(thiazoline)Cys = CC[C@H](C)[C@H](N)C1=N[C@H](C(=O)*)CS1; dOrn = NCCC[C@@H](N)C(=O)O
Let's go through some recorded HepSE_bilirubinemia values for Hepatotoxicity together.
Outcome measure: HepSE_bilirubinemia

INSERT INTO measurements (compound, measured_target, value_reported) VALUES
  ('CC[C@H](C)[C@H](N)C1=N[C@H](C(=O)N[C@@H](CC(C)C)C(=O)N[C@H](CCC(=O)O)C(=O)N[C@H](C(=O)N[C@H]2CCCCNC(=O)[C@H](CC(N)=O)NC(=O)[C@@H](CC(=O)O)NC(=O)[C@H](Cc3cnc[nH]3)NC(=O)[C@@H](Cc3ccccc3)NC(=O)[C@H]([C@@H](C)CC)NC(=O)[C@@H](CCCN)NC2=O)[C@@H](C)CC)CS1 [BACITRACIN] ({Ileψ(thiazoline)Cys}-L[dE]IK[dOrn]I[dF]H[dD]N; lactam 4-C)', 'Hepatotoxicity', 0),
  ('Nc1nc(Cl)nc2c1ncn2[C@H]1C[C@H](O)[C@@H](CO)O1', 'Hepatotoxicity', 0),
  ('FC(F)OC(Cl)C(F)(F)F (stereo unspecified)', 'Hepatotoxicity', 0),
  ('CCN[C@H]1CN(CCCOC)S(=O)(=O)c2sc(S(N)(=O)=O)cc21 [BRINZOLAMIDE]', 'Hepatotoxicity', 0),
  ('O=P(O)(O)C(Sc1ccc(Cl)cc1)P(=O)(O)O', 'Hepatotoxicity', 0),
  ('FC(F)(F)C(Cl)Br (stereo unspecified)', 'Hepatotoxicity', 0);
